- Run description: Cytotoxicity against human HCT116 cells assessed as reduction in cell viability after 48 hrs by WST1 assay
- Format: functional, cell-based
- Conditions used: HCT-116, 48 h
Cut-off 30 µM on IC50: below means class 1, at or above means class 0.

Does the reported IC50 of the following compound sit strictly below 30 µM? CC(C)=CCCC(C)[C@H]1CC=C(C)C(O)[C@H]1O (some centres not stated)
class 0

Does the reported IC50 of the following compound sit strictly below 30 µM? CC(C)C[C@H](NC(=O)[C@@H](O)[C@H](N)Cc1ccccc1)C(=O)O [UBENIMEX]
class 0

Does the reported IC50 of the following compound sit strictly below 30 µM? CCCCCC(O)CC(=O)CCc1ccc(O)c(OC)c1 (configuration not stated)
class 0

Does the reported IC50 of the following compound sit strictly below 30 µM? CCCCCC(CC(=O)CCc1ccc(OC)c(OC)c1)OC (configuration not stated)
class 0

Does the reported IC50 of the following compound sit strictly below 30 µM? CCCCCCCC(O)CC(=O)CCc1ccc(O)c(OC)c1 (configuration not stated)
class 0

Does the reported IC50 of the following compound sit strictly below 30 µM? CCCCCC(O)CC(=O)CCc1ccc(OCC=C(C)C)c(OC)c1 (configuration not stated)
class 1

Does the reported IC50 of the following compound sit strictly below 30 µM? CCCCC/C=C/CCC(O)CC(=O)CCc1ccc(O)c(OC)c1 (configuration not stated)
class 0

Does the reported IC50 of the following compound sit strictly below 30 µM? CCCCCCCCCC(O)CC(=O)CCc1ccc(O)c(OC)c1 (configuration not stated)
class 0

Does the reported IC50 of the following compound sit strictly below 30 µM? COc1ccc(CCC(C)=O)cc1OC
class 0

Does the reported IC50 of the following compound sit strictly below 30 µM? CCCCC/C=C/C(=O)CCc1ccc(O)c(OC)c1 [SHOGAOL]
class 1

Does the reported IC50 of the following compound sit strictly below 30 µM? C=CCOc1ccc(CCC(=O)CC(O)CCCCC)cc1OC (configuration not stated)
class 0
